Cited source: the NIST ThermoML archive (doi:10.1021/je049626l)

Catalogue of Normal melting temperature values
details: Crystal; DTA
± gives the expanded uncertainty stated by the source.
reportedProperty: Normal melting temperature

1) COC(=O)CCCOc1ccc(Cl)cc1Cl	35.0 ± 0.5 °C
2) COC(=O)COc1ccc(Cl)cc1Cl [methyl 2,4-dichlorophenoxyethanoate]	37.6 ± 0.5 °C
3) O=C(O)COc1ccc(Cl)cc1Cl	141.4 ± 0.5 °C
4) O=C(O)CCCOc1ccc(Cl)cc1Cl	120.1 ± 0.5 °C
5) CC(Oc1ccc(Cl)cc1Cl)C(=O)O (stereo not given)	116.6 ± 0.5 °C
